Listed next: entries and their corresponding IC50 at 72 h.
assay: Cytotoxicity by MTT assay in RAW 264.7 macrophages; format: cell-based, mouse; settings: mouse, 72 h of treatment

CC[C@@H]1O[C@@H]2C/C=C\C[C@H](C=C=CBr)O[C@@H]2C[C@H]1Br (relative stereo) ... > 15.6 µM
CCC(Br)C1CC2OC(C=C=CBr)CC=CCC2O1 (centres unmarked) ... > 7.81 µM
C#C/C=C\CC(Br)[C@H]1C[C@H]2O[C@@H](CC)[C@H](Br)C[C@H]2O1 (relative stereo) ... > 15.6 µM
CCC1OC2CC3OC3CC(C=C=CBr)OC2CC1Br (centres unmarked) ... > 15.6 µM

Prompt: Give its IC50 at 72 h value. Item: C#C/C=C\C[C@@H]1O[C@@H]2C[C@@H](Br)[C@H](CC)O[C@@H]2C[C@@H]1Br (relative stereo)
Response: > 62.5 µM
